Assembled from different publications: Ki for 5-hydroxytryptamine receptor 1A (Homo sapiens, UniProt P08908).
Hi! Could you send only the number? It should be in nM, unit omitted.

The cases that follow already have their Ki on record.
- molecule: "N#Cc1ccc2[nH]cc(CCCCN3CCN(c4ncc(-c5ccc(C(N)=O)nc5)cn4)CC3)c2c1"
  value.units: "nM"
  Ki: 2.19
- molecule: "Cn1c(F)cc2c1CCN(CCN1CCN(c3nsc4ccccc34)CC1)C2=O"
  value.units: "nM"
  Ki: 1.58
- molecule: "O=C1c2cn[nH]c2CCN1CCN1CCN(c2nsc3ccccc23)CC1"
  value.units: "nM"
  Ki: 44.2
- molecule: "Cc1ccc(C(C)NC(=O)c2cc3cccc(N4CCN(CCc5ccccn5)CC4)c3o2)cn1 (stereo not shown)"
  value.units: "nM"
  Ki: 2.1
- molecule: "COc1ccc2c(n1)C(=O)N(CCN1CCN(c3noc4ccccc34)CC1)CC2"
  value.units: "nM"
  Ki: 16.5
- molecule: "O=C(NC1CCN(c2ccccc2)CC1)c1cc2cccc(N3CCN(CCc4ccccn4)CC3)c2o1"
  value.units: "nM"
  Ki: 0.14
- molecule: "CC(CN1CCC(c2noc3cc(F)ccc23)CC1)N1CCc2cccnc2C1=O (stereo not shown)"
  value.units: "nM"
  Ki: 24
- molecule: "Cc1ccnc(CCNC(=O)c2cc3cccc(N4CCN(CCc5ccccn5)CC4)c3o2)n1"
  value.units: "nM"
  Ki: 2
- molecule: "O=C1c2nc(F)ccc2CCN1CCN1CCC(c2noc3ccccc23)CC1"
  value.units: "nM"
  Ki: 7.85

Kindly consider the entry below.
Tell me the measured Ki of COc1ccccc1N1CCN(CCN(Cc2ccccc2)C(=O)C2CCCCC2)CC1 , please.
1.8

---

Across several publications, the following Ki results were reported for 5-hydroxytryptamine receptor 1A (Homo sapiens, UniProt P08908).
Assign labels as follows, please: Y for Ki below 10 nM; N for Ki equal to or exceeding 10 nM.

- compound: "O=c1c2cnc(C3CC3)nc2ccn1CCN1CCN(c2nsc3ccccc23)CC1"
  qualitative.label: "N"
- compound: "Cc1noc2ccn(CCN3CCC(c4noc5ccccc45)CC3)c(=O)c12"
  qualitative.label: "N"
- compound: "O=C1c2cn[nH]c2CCN1CCN1CCC(c2noc3ccccc23)CC1"
  qualitative.label: "N"
- compound: "CC1CN(CCN2CCC(c3noc4ccccc34)CC2)C(=O)c2ncccc21 (stereo not drawn)"
  qualitative.label: "Y"
- compound: "Cc1ccc2c3c(ccc2n1)OC[C@H](CNCC1CCc2c(c4c(F)cccc4n2C)C1)O3 (stereo partly drawn)"
  qualitative.label: "Y"
- compound: "CCc1ncc2c(n1)CCN(CCN1CCN(c3nsc4ccccc34)CC1)C2=O"
  qualitative.label: "Y"
- compound: "N#Cc1cc(CN2CCC(Nc3ncnc4sc(Cl)cc34)CC2)ccc1F"
  qualitative.label: "N"
- compound: "Cn1cnc2c1C(=O)N(CCN1CCN(c3nsc4ccccc34)CC1)CCC2"
  qualitative.label: "N"

Here is another compound to look at.
Field: below-cutoff. Rule: recorded Ki strictly less than 10 nM. Subject: N#Cc1ccc2[nH]cc(CCCN3CCN(c4ccc(-n5ccc6ccccc6c5=O)cc4)CC3)c2c1
Y

---

Recorded pKi for compounds tested on 5-hydroxytryptamine receptor 1A (Homo sapiens, UniProt P08908), drawn from a number of studies.
pKi here is simply -log10 of the concentration when that concentration is written in mol/L.

- compound: "N#Cc1ccc2[nH]cc(CCCN3CCN(c4ncc(-c5ccc(C(N)=O)cn5)cn4)CC3)c2c1"
  quantity.kind: "pKi"
  numeric.readout: 8.37
- compound: "O=c1c2ncccc2ccn1CCN1CCN(c2noc3ccccc23)CC1"
  quantity.kind: "pKi"
  numeric.readout: 7.44
- compound: "C[C@H](CN(C(=O)C1(C)C2CCC1CC2)c1ccccn1)N1CCN(c2cccc3[nH]ccc23)CC1 (some centres unmarked)"
  quantity.kind: "pKi"
  numeric.readout: 9.35
- compound: "Cn1cc2c(n1)C(=O)N(CCN1CCC(c3noc4ccccc34)CC1)CC2"
  quantity.kind: "pKi"
  numeric.readout: 8.29
- compound: "COc1cccnc1CCN1CCN(c2cccc3cc(C(=O)N(C)C)oc23)CC1"
  quantity.kind: "pKi"
  numeric.readout: 9.80

For the record N#Cc1ccc2[nH]cc(CCCCN3CCN(c4ccc(-n5ccncc5=O)cc4)CC3)c2c1 , what value of pKi is listed for 5-hydroxytryptamine receptor 1A (Homo sapiens, UniProt P08908)?
9.10

Entry to check: Cc1cc2c(n1C)CCCN(CCN1CCN(c3nsc4ccccc34)CC1)C2=O
9.85

How about this compound: N#Cc1ccc2[nH]cc(CCCCN3CCN(c4ncc(-c5cccc(C(N)=O)n5)cn4)CC3)c2c1
9.28
